protocolSummary: Acute toxicity
testContext: mouse, in vivo, ip; intraperitoneal, female NMRI mice; dose which causes death of 50% of animals; read-out: Toxicity LD 50
Please provide measured LD50 for the entries that follow.

[[record]]
compound = "Cc1ccc2c(c1)N=C(N1CCN(C)CC1)c1ccccc1/C2=C/C#N [Example 30 (trans-isomer)]"
measuredattribute = "LD50"
recordedvalue = "> 100 mg/kg"

[[record]]
compound = "Cc1ccc2c(c1)N=C(N1CCN(C)CC1)c1ccccc1C2=CC#N (mixture of isomers) [Example 30 (cis-trans mixture)]"
measuredattribute = "LD50"
recordedvalue = "178 mg/kg"

[[record]]
compound = "N#CC=C1c2ccccc2N=C(N2CCCNCC2)c2ccccc21 (mixture of isomers) [Example 37 (cis-trans mixture)]"
measuredattribute = "LD50"
recordedvalue = "69.8 mg/kg"


Consider the following items and state reported LD50 for each.
1. CN1CCN(C2=Nc3ccccc3/C(=C\C#N)c3ccccc32)CC1 [Example 17 (trans-isomer)]
2. CCN1CCN(C2=Nc3ccccc3/C(=C\C#N)c3ccccc32)CC1 [Example 36 (trans-isomer)]
3. CN1CCN(C2=Nc3ccccc3Cc3ccccc32)CC1 [Perlapin, reference compound]

Result:
1: 332 mg/kg; 2: > 100 mg/kg; 3: 215 mg/kg

Quick batch: LD50 for everything below.
1. C[N+]1([O-])CCN(C2=Nc3ccccc3/C(=C/C#N)c3ccccc32)CC1 [Example 44 (cis-isomer)]
2. C[N+]1([O-])CCN(C2=Nc3ccccc3/C(=C\C#N)c3ccccc32)CC1 [Example 44 (trans-isomer)]
3. C[N+]1([O-])CCN(C2=Nc3ccccc3C(=CC#N)c3ccccc32)CC1 (mixture of isomers) [Example 44 (cis-trans mixture)]
4. Cc1ccc2c(c1)C(=CC#N)c1ccccc1C(N1CCN(C)CC1)=N2 (mixture of isomers) [Example 31 (cis-trans mixture)]
5. N#CC=C1c2ccccc2N=C(NCCN2CCCCC2)c2ccccc21 (mixture of isomers) [Example 39 (cis-trans mixture)]
6. CN1CCN(C2=Nc3cc(Cl)ccc3Nc3ccccc32)CC1 [Clozapin, reference compound]

Result:
1. 261 mg/kg
2. 559 mg/kg
3. 464 mg/kg
4. 50 mg/kg
5. 5.35 mg/kg
6. 215 mg/kg
